test system: 786-0 renal; test: NCI tumour cell line growth inhibition, 48 h; in the data active = GI50 below about 0.43 µM; inactive = the rest
The reply should be one of these categories: yes (1) (active), no (0) (inactive)

Solved entries (count: 3):
O=C(CI)Nc1ccc(O)c2ccccc12
no (0)
O=C1C(=O)c2ccccc2C(O)=C1CCCc1ccc(C2CCCCC2)cc1
no (0)
C=C1C(=O)O[C@H]2[C@H]1CC/C(COC(=O)CCCc1c[nH]c3ccccc13)=C\CC[C@@]1(C)O[C@@H]21
no (0)

Request: Tell me the recorded outcome of this test for CCC1(OC(=O)CN)C(=O)OCc2c1cc1n(c2=O)Cc2cc3ccccc3nc2-1 (centres undefined) .
Result: yes (1)

Request: Per the assay record, what outcome was assigned to O=CN1N=C(c2cccc(Nc3ccnc4cc(Cl)ccc34)c2)CC1c1ccccc1 (centres undefined) ?
Result: no (0)

Request: Hi, do you know how `COc1ccc(/C(C#N)=C/c2cc(OC)c(OC)c(OC)c2)cc1` came out in this test?
Result: no (0)

Request: Kindly provide the recorded test outcome for the following compound: `C[C@H]1CNC(=O)c2cnn3ccc(nc23)N[C@H](C)c2cc(F)ccc2O1`
Result: no (0)

Request: Recorded call for `O=C1C=Cc2c1ccc1ccccc21` ?
Result: no (0)

* * *

tested on: MCF7 breast; test: NCI tumour cell line growth inhibition, 48 h
PROPERTY MEASURED: TGI

Cc1[nH]c(N)nc(=S)c1CCC(=O)O
> 100 µM

TGI recorded for this molecule, CC(C(=O)c1ccncc1)c1ccccn1 (stereo unspecified) , is > 100 µM

# TGI (molecule: `C[n+]1c2ccccc2nc2ccccc21` ) is 1.59 µM

* * *

test system: A549 NSCLC; test: NCI tumour cell line growth inhibition, 48 h
Recorded GI50 values for a group of molecules are listed next.

Cc1c(N)nc(C(CC(N)=O)NCC(N)C(N)=O)nc1C(=O)NC(C(=O)NC(C)C(O)C(C)C(=O)NC(C(=O)NCCc1nc(-c2nc(C(=O)NCCCNC(C)c3ccccc3)cs2)cs1)C(C)O)C(OC1OC(CO)C(O)C(O)C1OC1OC(CO)C(O)C(OC(N)=O)C1O)c1cnc[nH]1 (stereo not drawn)
630 nM
O=CN1N=C(c2cccc(Nc3ccnc4cc(Cl)ccc34)c2)CC1c1ccccc1 (stereo not drawn)
501 nM

// below: GI50 requested for another molecule
`O=c1oc2cc(OC/C(=N/O)c3ccc(F)cc3)ccc2c2ccccc12` has a reported GI50 of 18200 nM

* * *

system: DU-145 prostate; assay: NCI tumour cell line growth inhibition, 48 h
PROPERTY MEASURED: TGI

CC(=O)NC(CSC1=C2NC(=O)\C=C/C=C/C=C\C(C)C(O)CC(=O)/C(C)=C\CC(O)/C=C/C(C)C(O)C(C)C=C(C)C(=O)c3c(O)c(C)cc(c3C1=O)C2=O)C(=O)O (centres undefined)
> 100 µM
N#Cc1cc(Sc2ccc(N)c(C#N)c2)ccc1N
89.6 µM
Cc1[nH]c(N)nc(=S)c1CCC(=O)O
> 100 µM
CCCCc1ccc(Nc2nc(Cl)c3c(ncn3C3CC(Oc4ccc(C)cc4)C(COc4ccc(C)cc4)O3)n2)cc1 (centres undefined)
> 100 µM
CCSc1nc(=S)n(-c2ccccc2)c(C)c1C(C)=O
> 100 µM

Given item `Cc1nc2ccccn2c1NC(=O)NNC(=S)Nc1ccc(F)cc1` , the value recorded as its TGI is > 100 µM

Reported TGI for COc1ccc(NC(C(N)=O)c2cc3cc(Br)ccc3nc2Cl)cc1 (centres undefined) was > 100 µM

* * *

tested on: NCI-H522 lung; experiment: NCI tumour cell line growth inhibition, 48 h; in the data active = GI50 below about 0.43 µM; inactive = the rest
Choose one outcome from this list and give only that: active, inactive

O=C(c1ccccc1)c1c(C(F)(F)F)n([O-])c2cc(C(F)(F)F)ccc2[n+]1=O
inactive
Cc1c(N)nc(C(CC(N)=O)NCC(N)C(N)=O)nc1C(=O)NC(C(=O)NC(C)C(O)C(C)C(=O)NC(C(=O)NCCc1nc(-c2nc(C(=O)NCCCNC(C)c3ccccc3)cs2)cs1)C(C)O)C(OC1OC(CO)C(O)C(O)C1OC1OC(CO)C(O)C(OC(N)=O)C1O)c1cnc[nH]1 (stereo not given)
inactive
CC(=O)O[C@H]1C(=O)[C@@]2(C)[C@H]([C@H](OC(=O)c3ccccc3)[C@]3(O)C[C@H](OC(=O)[C@H](OC(=O)OC[C@H]4COC(C)(C)O4)[C@@H](NC(=O)c4ccccc4)c4ccccc4)C(C)=C1C3(C)C)[C@]1(OC(C)=O)CO[C@@H]1C[C@@H]2O
active
CCCCCCCCCCCCCCCCNCCC[C@@H](C)[C@H]1CC[C@H]2[C@@H]3[C@H](OCCCN)C[C@@H]4C[C@H](OCCCN)CC[C@]4(C)[C@H]3C[C@H](OCCCN)[C@]12C
inactive

Now turn to the next compound.
Request: Per the records of this test, what outcome belongs to `CO[C@H]1C[C@](C)(O)Cc2cc3c(c(O)c21)C(=O)c1c(O)cc2c(c1C3=O)O[C@@H]1O[C@@]2(C)[C@H](O)[C@@H](N(C)C)[C@@H]1O` ?
Result: inactive

* * *

system: OVCAR-5 ovarian; assay: NCI tumour cell line growth inhibition, 48 h; in the data active means GI50 below about 0.43 µM; inactive means the rest
Tick one outcome: active, inactive

Worked cases, answers included:
O=C(Nc1ccc(F)cc1)Nc1ccc(Br)c(C(F)(F)F)c1
inactive
CC(C)=CC(=O)N[C@H]1CC[C@]2(C)C3CC[C@]4(C)C(C(C)N(C)C)=CCC4C3CCC2[C@H]1O (some centres not stated)
inactive
O=C(/C=C1\C(=O)N(Cc2ccccc2)c2ccccc21)c1ccc(OCCN2CCCCC2)cc1
inactive
Cc1ccc2c(c1)C(=O)c1c-2c(OCCCN(C)C)nc2ccccc12
inactive
Cc1c(N)nc(C(CC(N)=O)NCC(N)C(N)=O)nc1C(=O)NC(C(=O)NC(C)C(O)C(C)C(=O)NC(C(=O)NCCc1nc(-c2nc(C(=O)NCCCNC(C)c3ccccc3)cs2)cs1)C(C)O)C(OC1OC(CO)C(O)C(O)C1OC1OC(CO)C(O)C(OC(N)=O)C1O)c1cnc[nH]1 (configuration not stated)
inactive

Request: Tell me the recorded outcome of this test for `CC(=O)O[C@H]1C(=O)[C@@]2(C)[C@H]([C@H](OC(=O)c3ccccc3)[C@]3(O)C[C@H](OC(=O)[C@H](OC(=O)OC[C@H]4COC(C)(C)O4)[C@@H](NC(=O)c4ccccc4)c4ccccc4)C(C)=C1C3(C)C)[C@]1(OC(C)=O)CO[C@@H]1C[C@@H]2O` .
Result: active

Request: Give the logged outcome of this assay for the following compound: `COC(=O)c1c2c(c(C)[n+]([O-])c1C)C(=O)C=C(NCc1cccc(Cl)c1)C2=O`
Result: inactive

* * *

test system: HS 578T breast; assay: NCI tumour cell line growth inhibition, 48 h
PROPERTY MEASURED: TGI (µM)
Note: unit µM is implicit; provide only the numeric part.

Example entries and their recorded answers appear below.
C=C1C(=O)O[C@H]2[C@H]1CC/C(Cn1cc(-c3ccc(F)cc3)nn1)=C\CC[C@@]1(C)O[C@@H]21
22.6
Cc1ccc2c(c1)C(=O)c1c-2c(OCCCN(C)C)nc2ccccc12
19.8
CC(C)C(=O)c1c(C(F)(F)F)n([O-])c2cc(F)c(F)cc2[n+]1=O
2.64

The measured TGI that `CCCCSC1=N/C(=C\c2ccc(N(C)C)cc2)C(=O)N1` showed for HS 578T breast is 92.1

Known value: HS 578T breast TGI of the compound `Cn1c(-c2ccccc2)c(/C=C/C2=[N+](C)c3ccccc3C2(C)C)c2ccccc21` equals 16.6

Log: HS 578T breast, compound `NC(N)=NC(N)=NCCCc1ccco1` , TGI = 383

* * *

system: A498 renal; test: NCI tumour cell line growth inhibition, 48 h
// values below are reported TGI
Give just the numeric value; µM need not be written.

// below: answered compounds
COC1=C(Cl)C(=O)c2c(O)ccc(O)c2C1=O
2.63
CC(=O)O[C@H]1C(=O)[C@@]2(C)[C@H]([C@H](OC(=O)c3ccccc3)[C@]3(O)C[C@H](OC(=O)[C@H](OC(=O)OC[C@H]4COC(C)(C)O4)[C@@H](NC(=O)c4ccccc4)c4ccccc4)C(C)=C1C3(C)C)[C@]1(OC(C)=O)CO[C@@H]1C[C@@H]2O
0.499
Cc1ccc2c(c1)C(=O)c1c-2c(OCCCN(C)C)nc2ccccc12
14.3
CC1SC2(CCCCC2)N(NC(=O)CSc2nc3ccc(Cl)cc3c(=O)n2-c2ccccc2)C1=O (stereo not drawn)
81.2

Measured on A498 renal, `C[C@H]1CNC(=O)c2cnn3ccc(nc23)N[C@H](C)c2cc(F)ccc2O1` has a documented TGI of 0.886

* * *

Known TGI of a selection of compounds
test system: DMS 114 small cell lung; test: NCI tumour cell line growth inhibition, 48 h

Below: 3 compounds and their reported TGI.
CCOc1ccc(C(C)c2cc3c(cc2OC)OCO3)cc1 (centres undefined)
0.85 µM
c1ccc(SC23C4C5C6C4C2C6C53)nc1 (centres undefined)
> 100 µM
CCCN(CCC)C(=O)c1nc(N)nc(-c2ccc(OC)cc2)c1-c1ccc(OC)cc1
> 100 µM

`C=CCN1/C(=C2\SC(=S)N(c3ccc(C)cc3)C2=O)Sc2c1ncn(C)c2=O` has a reported TGI of > 100 µM

The measurements presented in this section are drawn from PubChem BioAssay (NCI).
